Where these numbers come from: patent US20040170955A1

# β5/BSA Ratio per entry
Target: T1, GST-β5cyto (GST fusion protein of the β5 integrin cytoplasmic domain) (UniProt P18084 743-799)
T1 construct: domain: cytoplasmic domain; Recombinant GST fusion coated on microtiter wells; also called β5-GST; β5 cytoplasmic domain fusion protein; not shown: glutathione S-transferase (GST) fusion partner
T1 sequence (looked up): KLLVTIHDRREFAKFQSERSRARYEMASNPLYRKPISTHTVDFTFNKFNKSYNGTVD
Assay: phage binding, colonies from β5-GST wells / BSA wells
Ends that are not written are not given here.
Number in ratio, nothing else.

binder="CYIWPDSGLC (cysteine pairing not given here; also: displayed on phage, whole phage tested) [phage displaying CYIWPDSGLC (SEQ ID NO:105)]" measurement_units=ratio reported_result=193
binder="SDWYYPWSW (whole phage tested; Selected on β5) [phage displaying SDWYYPWSW (SEQ ID NO:113)]" measurement_units=ratio reported_result=304
binder="CWDQNYLDDC (whole phage tested) [phage displaying CWDQNYLDDC (SEQ ID NO:109)]" measurement_units=ratio reported_result=100

Could you now consider this next binder?
Param item = DEEGYYMMR (whole phage tested) [phage displaying DEEGYYMMR (SEQ ID NO:110)] ; retrieve measured β5/BSA Ratio.
29
